src = patent US20040149200A1

- Experimental details: Storage stability of Oligosaccharide Crystals (I) and freeze-dried Oligosaccharide (I) powders (residual rate by HPLC)
- Format: physicochemical
- Condition info: 105° C. in the atmosphere under ordinary pressure; days that passed: 4
Property label: Residual rate of oligosaccharides: HPLC purity (%)
API: value field is a number in %; no unit string.

Illustrative cases are given below, each with its answer.
{"Compound": "CC(=O)N[C@H]1[C@H](O[C@H]2[C@@H](O)[C@@H](CO)O[C@@H](O[C@H]3[C@H](O)[C@@H](O)C(O)O[C@@H]3CO)[C@@H]2O)O[C@H](CO)[C@@H](O[C@@H]2O[C@H](CO)[C@H](O)[C@H](O[C@@H]3O[C@H](CO)[C@@H](O)[C@H](O)[C@H]3NC(C)=O)[C@H]2O)[C@@H]1O (stereo partly drawn) [Freeze-dried GlcNAcβ1, 3Gal-β1, 4GlcNAcβ1, 3Galβ1, 4Glc powd] [GlcNAcβ1,3Galβ1,4GlcNAcβ1,3Galβ1,4Glc]", "Numeric result": 97.4}
{"Compound": "CC(=O)N[C@H]1[C@H](O[C@H]2[C@@H](O)[C@@H](CO)O[C@@H](O[C@H]3[C@H](O)[C@@H](O)C(O)O[C@@H]3CO)[C@@H]2O)O[C@H](CO)[C@@H](O[C@@H]2O[C@H](CO)[C@H](O)[C@H](O)[C@H]2O)[C@@H]1O (stereo partly drawn) [Freeze-dried Galβ1, 4GlcNAc-β1, 3Galβ1, 4Glc powders] [Galβ1,4GlcNAcβ1,3Galβ1,4Glc]", "Numeric result": 97.6}
{"Compound": "CC(=O)N[C@H]1[C@H](O[C@H]2[C@@H](O)[C@@H](CO)O[C@@H](O[C@H]3[C@H](O)[C@@H](O)C(O)O[C@@H]3CO)[C@@H]2O)O[C@H](CO)[C@@H](O)[C@@H]1O (stereo partly drawn) [Freeze-dried GlcNAcβ1, 3Gal-β1, 4Glc powders] [GlcNAcβ1,3Galβ1,4Glc]", "Numeric result": 97.0}
{"Compound": "CC(=O)N[C@H]1[C@H](O[C@H]2[C@@H](O)[C@@H](CO)O[C@@H](O[C@H]3[C@H](O)[C@@H](O)C(O)O[C@@H]3CO)[C@@H]2O)O[C@H](CO)[C@@H](O)[C@@H]1O (stereo partly drawn) [Crystals No. 1, GlcNAcβ1, 3Galβ1, 4Glc]", "Numeric result": 99.7}

Recorded result, CC(=O)N[C@H]1[C@H](O[C@H]2[C@@H](O)[C@@H](CO)O[C@@H](O[C@H]3[C@H](O)[C@@H](O)C(O)O[C@@H]3CO)[C@@H]2O)O[C@H](CO)[C@@H](O[C@@H]2O[C@H](CO)[C@H](O)[C@H](O[C@@H]3O[C@H](CO)[C@@H](O)[C@H](O)[C@H]3NC(C)=O)[C@H]2O)[C@@H]1O (stereo partly drawn) [Crystals No. 3] , Residual rate of oligosaccharides: HPLC purity (%): 99.0

Recorded result, CC(=O)N[C@H]1[C@H](O[C@H]2[C@@H](O)[C@@H](CO)O[C@@H](O[C@H]3[C@H](O)[C@@H](O)C(O)O[C@@H]3CO)[C@@H]2O)O[C@H](CO)[C@@H](O[C@@H]2O[C@H](CO)[C@H](O)[C@H](O)[C@H]2O)[C@@H]1O (stereo partly drawn) [Crystals No. 2, Galβ1, 4GlcNAcβ1, 3Galβ1, 4Glc] , Residual rate of oligosaccharides: HPLC purity (%): 99.2
